study.system: T1, PmrA N188A (Klebsiella pneumoniae, UniProt W9BNR5 1-223, N188A)
T1 sequence: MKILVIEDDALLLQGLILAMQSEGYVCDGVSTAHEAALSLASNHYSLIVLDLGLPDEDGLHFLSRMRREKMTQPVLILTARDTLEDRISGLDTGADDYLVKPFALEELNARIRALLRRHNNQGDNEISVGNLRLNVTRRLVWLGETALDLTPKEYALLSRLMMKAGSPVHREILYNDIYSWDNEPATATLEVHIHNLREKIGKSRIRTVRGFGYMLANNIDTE
test.description: fluorescence polarization; BeF3-, Mg2+ (activation); FP: 10 mM sodium phosphate, 15 mM NaCl, pH 7.0, 298 K, 6 nM FAM-DNA; proteins activated with 5.3 mM BeCl2, 35 mM NaF, 7 mM MgCl2. NMR: 20 mM Tris-HCl, 100 mM Na
pKd: −log10 of the molar value.
assay.endpoint: pKd

binder: 25-bp FAM-labelled DNA (FP) (dsDNA) DNA 1: ATTTCTTAATATTATCCTAAGCAAG DNA 2: TTGCTTAGGATAATATTAAGAAATC
assay.endpoint: pKd
numeric.value: 6.12
